The reported measurements were obtained from the Human Domainome abundance scans (Beltran et al. 2025).

B1: Gamma-crystallin C, residues 4 to 79; numbered along this chain, P07315 (parent)
chain: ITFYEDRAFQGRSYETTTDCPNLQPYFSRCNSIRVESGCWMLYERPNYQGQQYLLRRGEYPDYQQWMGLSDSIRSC

Variants of: B1
Assay: abundance fitness (aPCA) (normalised: wild type 0, dead -1); higher = more abundant; growth selection in yeast, the domain comes from the species named
Settings: Homo sapiens
Answer no if abundance fitness is under -0.04, and yes if it is -0.04 or more.

Observe how each entry below is paired with its result.
R29Q no
R7F no

API: above_or_equal(metric=abundance fitness, cutoff=-0.04) for item C30E
no

API: above_or_equal(metric=abundance fitness, cutoff=-0.04) for item Q52E
yes

API: above_or_equal(metric=abundance fitness, cutoff=-0.04) for item N22Q
no

API: above_or_equal(metric=abundance fitness, cutoff=-0.04) for item R45L
no

API: above_or_equal(metric=abundance fitness, cutoff=-0.04) for item E44W
no

API: above_or_equal(metric=abundance fitness, cutoff=-0.04) for item Q51M
no

API: above_or_equal(metric=abundance fitness, cutoff=-0.04) for item G11M
no

API: above_or_equal(metric=abundance fitness, cutoff=-0.04) for item S75P
no

API: above_or_equal(metric=abundance fitness, cutoff=-0.04) for item C76M
no

API: above_or_equal(metric=abundance fitness, cutoff=-0.04) for item S28Q
no

API: above_or_equal(metric=abundance fitness, cutoff=-0.04) for item T17S
no

API: above_or_equal(metric=abundance fitness, cutoff=-0.04) for item N47F
no

API: above_or_equal(metric=abundance fitness, cutoff=-0.04) for item S72F
yes

API: above_or_equal(metric=abundance fitness, cutoff=-0.04) for item S13H
yes

API: above_or_equal(metric=abundance fitness, cutoff=-0.04) for item M67N
no

API: above_or_equal(metric=abundance fitness, cutoff=-0.04) for item Q51C
no

API: above_or_equal(metric=abundance fitness, cutoff=-0.04) for item P61E
no

API: above_or_equal(metric=abundance fitness, cutoff=-0.04) for item Q65D
yes

API: above_or_equal(metric=abundance fitness, cutoff=-0.04) for item Q51A
yes

API: above_or_equal(metric=abundance fitness, cutoff=-0.04) for item P25C
yes
